B1: HDV Ribozyme (parent)
chain: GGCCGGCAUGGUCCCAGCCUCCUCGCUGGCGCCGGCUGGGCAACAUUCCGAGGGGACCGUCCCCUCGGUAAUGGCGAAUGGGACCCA

- Variants of: B1
- experiment: self-cleavage, relative activity (ratio to wild type); higher = more cleavage; co-transcriptional
Label rule, in plain words: self-cleavage of 0.4 and up is True, under 0.4 is False.

Field: example entries. Status: answers known.
[Q] # bool: self-cleavage of `GGCCGGCAUGGUAGCAGCCUCCUCGCUGGCGCCGGCUGGGCAACAUUCCGAGGGGACCGUCCCCUCGGUAAUGGCGAAUGGGACCCA` >= 0.4
[A] False

[Q] # bool: self-cleavage of `GGCCCGCAUGGUCCCAGCCUCCUCGCUGGCGCCGGCUGGGCAACAUUCCGAGGGGACCGUCACCUCGGUAAUGGCGAAUGGGACCCA` >= 0.4
[A] False

[Q] # bool: self-cleavage of `GGCCGACAUGGUCCCAGCCUCCUCGCUGUCGCCGGCUGGGCAACAUUCCGAGGGGACCGUCCCCUCGGUAAUGGCGAAUGGGACCCA` >= 0.4
[A] False

[Q] # bool: self-cleavage of `GGCCGGCAUGGUCUCAGCCUCCUCGCUGGCGCCGGCAGGGCAACAUUCCGAGGGGACCGUCCCCUCGGUAAUGGCGAAUGGGACCCA` >= 0.4
[A] False

[Q] # bool: self-cleavage of `GGCCGGCAUGGUCCCAGCCUCCUCGCUGGCGCCGGCUGGGCAACAUUCCGAGGGGACCGUCCCCUGGGUAAUGGCGAAUGGGUCCCA` >= 0.4
[A] True

Continuing:
[Q] # bool: self-cleavage of `GGCCGGCAUGGUCCCAGCCUCCUCGCUGGCGCCGGCUGGGCAACAUUCCGAGGGGACCGUCCCCUCGGUAAUAGCGAAUGGGCCCCA` >= 0.4
[A] False

[Q] # bool: self-cleavage of `GGCCGGCACGGUCCCAGCCUCCUCGCUGGCGCCGGCUGGGCAACAUUCCGAGGGCACCGUCCCCUCGGUAAUGGCGAAUGGGACCCA` >= 0.4
[A] True

[Q] # bool: self-cleavage of `GGCCGGCAUGGUCCCAGCGUCCUCGCUGGCGCCGGCUGGGCAACAUUCCGAGGGGACCGCCCCCUCGGUAAUGGCGAAUGGGACCCA` >= 0.4
[A] False

[Q] # bool: self-cleavage of `GGCCGGCAUGGUCCCAGCCUCCUCGCUGGCGCCGGCUGGGCAACAUUCCGAGAGGACCGUCCCCUCGGUAAAGGCGAAUGGGACCCA` >= 0.4
[A] True

[Q] # bool: self-cleavage of `GGCCGGCAUGGUCCCAGCCUCCUCGCUGACGCCGGCUGGGCAACAUUCCGAGGGGACCGUCCCCUCGGUAAUGGCGAAUGGGAGCCA` >= 0.4
[A] False

[Q] # bool: self-cleavage of `GGCCGGCAUGGACCCAGCCUCCUCGCUGGCGCCGGCUGGGCAACAUUCCGAAGGGACCGUCCCCUCGGUAAUGGCGAAUGGGACCCA` >= 0.4
[A] False

[Q] # bool: self-cleavage of `GGCCGGCAUGGUCCCAGCCUCCUCGCUGGCGCCGGCUGGGCAACAUUCUGAGGGGACCGUCCCCUCGGUAAUGGCCAAUGGGACCCA` >= 0.4
[A] True

[Q] # bool: self-cleavage of `GGCCGGCAUGGUCCCAGCCUCCUCGCUGGCCCCGGCUGGGCAACAUUCCGAGGGGACCGUCCCCUUGGUAAUGGCGAAUGGGACCCA` >= 0.4
[A] False
